Consider the following compounds; for each one, report its TGI.
# Tested on: 786-0 renal
# method_notes: NCI tumour cell line growth inhibition, 48 h
Numbers only, in µM.

Some compounds with known TGI results, for comparison:
O=c1[nH]nc(Cc2ccc(Cl)cc2)n1/N=C/c1ccc([N+](=O)[O-])o1; 11.1
CCCCCCCCOc1ccc(/C=C/C2=[N+](CCO)CCO2)cc1; 13.7
CC(=O)N1CCN(CCNC(=O)n2cc(-c3ccncc3)c(-c3cc(O)cc(Cl)c3)n2)CC1; 23.3
CC(C)N(Cc1ccc(CN(C(=O)CCl)C(C)C)cc1)C(=O)CCl; 1.3
O=C(c1ccc(Cl)cc1)N1CCN=C1c1cc2ccccc2c2ccccc12; 30.4

Hi, could you look up TGI for each item in my list?
1. O=C(CN(/C=C/C(=O)C(F)(F)F)c1ccc(Cl)cc1)c1ccc(Cl)c(Cl)c1
2. O=C(C(=O)n1ncc(Cl)c(Cl)c1=O)n1ncc(Cl)c(Cl)c1=O
3. O=C1/C(=C/c2ccc(F)cc2)CN(C(=O)CCN2CCC(=NO)CC2)C/C1=C\c1ccc(F)cc1
4. O=C1/C(=C/c2cccc3ccccc23)CCc2ccc([N+](=O)[O-])cc21

OUTPUT:
[24.5, 44.6, 3.45, 65.5]
